# test.target: E. coli UDP-N-acetylglucosamine enolpyruvoyl transferase, MurA (Escherichia coli, UniProt P0A749)
# Sequence (P0A749 whole entry): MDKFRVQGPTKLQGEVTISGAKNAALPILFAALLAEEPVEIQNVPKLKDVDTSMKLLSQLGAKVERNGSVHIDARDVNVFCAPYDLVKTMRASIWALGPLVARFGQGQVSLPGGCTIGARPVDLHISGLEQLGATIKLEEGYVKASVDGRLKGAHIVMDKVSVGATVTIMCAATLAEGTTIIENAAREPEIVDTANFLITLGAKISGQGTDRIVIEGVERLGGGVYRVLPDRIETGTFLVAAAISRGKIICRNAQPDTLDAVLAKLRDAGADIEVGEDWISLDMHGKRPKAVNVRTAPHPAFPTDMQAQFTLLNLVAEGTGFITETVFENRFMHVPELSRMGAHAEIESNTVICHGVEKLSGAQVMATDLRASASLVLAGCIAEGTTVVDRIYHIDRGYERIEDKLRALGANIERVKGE
API: label(entry) gives true if the entry's IC50 is strictly smaller than 50 µM; on equality or larger values it gives false.

{"substance.smiles": "O=C1O/C(=C\\c2cc(C(F)(F)F)ccc2F)C(O)=C1c1cccc(-c2ccccc2)c1", "assigned.category": "true"}
{"substance.smiles": "COc1ccc(C2=C(O)/C(=C/c3ccc4ccccc4c3)OC2=O)cc1", "assigned.category": "false"}
{"substance.smiles": "O=C1O/C(=C\\c2cccc3ccccc23)C(O)=C1c1ccc(-c2ccccc2)cc1", "assigned.category": "false"}
{"substance.smiles": "CCOc1ccc(-c2ccc(C3=C(O)/C(=C/c4cccc(C(F)(F)F)c4Cl)OC3=O)cc2)cc1", "assigned.category": "true"}
{"substance.smiles": "Cc1ccc(/C=C2\\OC(=O)C(c3ccc4ccccc4c3)=C2O)s1", "assigned.category": "false"}
{"substance.smiles": "O=C1O/C(=C\\c2ccc(C(F)(F)F)cc2)C(O)=C1c1ccc(-c2ccccc2)cc1", "assigned.category": "true"}
{"substance.smiles": "O=C1O/C(=C\\c2cccc3ccccc23)C(O)=C1c1cccc2ccccc12", "assigned.category": "false"}
{"substance.smiles": "CCCc1ccc(-c2ccc(C3=C(O)/C(=C/c4cccc(C(F)(F)F)c4Cl)OC3=O)cc2)cc1", "assigned.category": "true"}

----------
# System: C. elegans
# procedure.details: Efficacy against nematodes (C. elegans motility rating)
# Parameters: key: 0: no effect; 7: reduced movement in 24 h; 8: dead in 24 h; 9: dead in 4 h
# run.conditions: dose 100 ppm, observations at 4 h and 24 h postimmersion
Below, each entry is listed with its recorded Rating.

{"compound": "O=C1OC(=Cc2ccc(C(F)(F)F)cc2)C(O)=C1c1ccc(F)cc1 (mixture of isomers)", "test.target": "C. elegans", "Rating": 9}
{"compound": "O=C1OC(=Cc2ccc(-c3ccc(Cl)cc3)cc2)C(O)=C1c1cccc(C(F)(F)F)c1 (mixture of isomers)", "test.target": "C. elegans", "Rating": 9}
{"compound": "O=C1OC(=Cc2ccc(-c3cccs3)cc2)C(O)=C1c1ccc(OC(F)(F)F)cc1 (mixture of isomers)", "test.target": "C. elegans", "Rating": 9}
{"compound": "Cc1c(C=C2OC(=O)C(c3ccc(OC(F)(F)F)cc3)=C2O)cnn1-c1ccccc1 (mixture of isomers)", "test.target": "C. elegans", "Rating": 0}
{"compound": "O=C1OC(=Cc2ccc(OC(F)F)cc2)C(O)=C1c1ccc(OC(F)(F)F)cc1 (mixture of isomers)", "test.target": "C. elegans", "Rating": 9}
{"compound": "O=C1O/C(=C\\c2ccc(C(F)(F)F)cc2)C(O)=C1c1ccc(Cl)s1", "test.target": "C. elegans", "Rating": 9}
{"compound": "N#Cc1ccc(-c2ccc(C3=C(O)C(=Cc4ccc(Cl)cc4)OC3=O)cc2)cc1 (mixture of isomers)", "test.target": "C. elegans", "Rating": 9}
{"compound": "O=C1OC(=Cc2ccc(C(F)(F)F)cc2)C(O)=C1c1ccc(Cl)cc1 (mixture of isomers)", "test.target": "C. elegans", "Rating": 9}
{"compound": "O=C1OC(=Cc2ccc(C(F)(F)F)cc2)C(O)=C1c1cccc(Cl)c1 (mixture of isomers)", "test.target": "C. elegans", "Rating": 9}
{"compound": "O=C1OC(=Cc2ccc(Oc3ccccc3)nc2)C(O)=C1c1ccc(OC(F)(F)F)cc1 (mixture of isomers)", "test.target": "C. elegans", "Rating": 9}
{"compound": "O=C1O/C(=C\\c2ccc(F)c(C(F)(F)F)c2)C(O)=C1c1ccc(Cl)s1", "test.target": "C. elegans", "Rating": 9}
{"compound": "Cc1c(C=C2OC(=O)C(c3ccc(OC(F)(F)F)cc3)=C2O)cnn1-c1ccc(F)cc1 (mixture of isomers)", "test.target": "C. elegans", "Rating": 0}
{"compound": "N#Cc1ccc(C=C2OC(=O)C(c3cccs3)=C2O)cc1", "test.target": "C. elegans", "Rating": 0}
{"compound": "O=C1OC(=Cc2ccc(OC(F)(F)F)cc2)C(O)=C1c1ccc(F)cc1 (mixture of isomers)", "test.target": "C. elegans", "Rating": 9}
{"compound": "O=C1OC(=Cc2ccc(Cl)s2)C(O)=C1c1ccc(OC(F)(F)F)cc1 (mixture of isomers)", "test.target": "C. elegans", "Rating": 9}
